Test: Oral bioavailability in Sprague-Dawley rat at 4.2 mg/kg
Format: ADME, organism-based
Conditions: in vivo
quantity: bioavailability (%)

1) CC(C)n1cc(C(=O)c2cccc(NC(=O)Nc3ccc(Cl)cc3)c2)c2c(N)ncnc21    100

---

Assay: Permeability across basolateral to apical side in human Caco2 cells expressing p-gp
Assay type: ADME, cell-based
Conditions: Caco-2, read-out: permeability
quantity: Papp B→A (nm/s)

1) CC(C)n1cc(C(=O)c2cccc(NC(=O)Nc3ccc(Cl)cc3)c2)c2c(N)ncnc21    95

---

Test: Volume of distribution at steady state in Sprague-Dawley rat at 0.164 mg/kg, iv
Format: ADME, organism-based
Set-up: dose 0.164 mg/kg, route intravenous
Conditions: in vivo, read-out: Vdss
quantity: Vd

1. CC(C)n1cc(C(=O)c2cccc(NC(=O)Nc3ccc(Cl)cc3)c2)c2c(N)ncnc21    0.9 L/kg

---

Test: Tmax in Sprague-Dawley rat at 4.2 mg/kg, po
Assay type: ADME, organism-based
Parameters: dose 4.2 mg/kg, route oral
Conditions: in vivo
quantity: Tmax (min)

1. CC(C)n1cc(C(=O)c2cccc(NC(=O)Nc3ccc(Cl)cc3)c2)c2c(N)ncnc21    45

---

Experiment: Efflux ratio of permeability across basolateral to apical side over apical to basolateral side in human Caco2 cells expressing p-gp
Format: ADME, cell-based
Conditions: Caco-2
quantity: efflux ratio

1. Nc1ncnc2c1c(C(=O)c1cccc(NC(=O)Nc3ccc(Cl)cc3Cl)c1)cn2C1CCCC1    1.9
2. Nc1ncnc2c1c(C(=O)c1cccc(NC(=O)Nc3c(F)cccc3F)c1)cn2C1CCCC1    3.5
3. Nc1ncnc2c1c(-c1nc3ccc(NC(=O)Nc4c(F)cccc4F)cc3[nH]1)cn2C1CCCC1    3.2
4. CC(C)n1cc(C(=O)c2cccc(NC(=O)Nc3ccc(Cl)cc3)c2)c2c(N)ncnc21    1.5
5. Nc1ncnc2c1c(C(=O)c1cccc(NS(=O)(=O)c3c(F)cccc3F)c1)cn2C1CCCC1    4.7
6. Nc1ncnc2c1c(C(=O)c1cccc(NC(=O)Nc3ccc(Cl)cc3)c1)cn2C1CCCC1    17
7. Cc1ccc(F)c(NC(=O)Nc2cccc(C(=O)c3cn(C4CCCC4)c4ncnc(N)c34)c2)c1    9.2
8. COc1ccc(C)cc1NC(=O)Nc1cccc(C(=O)c2cn(C3CCCC3)c3ncnc(N)c23)c1    9.4

---

Target: Proto-oncogene tyrosine-protein kinase Src (Homo sapiens, UniProt P12931)
Sequence (P12931 2-536 limits assumed): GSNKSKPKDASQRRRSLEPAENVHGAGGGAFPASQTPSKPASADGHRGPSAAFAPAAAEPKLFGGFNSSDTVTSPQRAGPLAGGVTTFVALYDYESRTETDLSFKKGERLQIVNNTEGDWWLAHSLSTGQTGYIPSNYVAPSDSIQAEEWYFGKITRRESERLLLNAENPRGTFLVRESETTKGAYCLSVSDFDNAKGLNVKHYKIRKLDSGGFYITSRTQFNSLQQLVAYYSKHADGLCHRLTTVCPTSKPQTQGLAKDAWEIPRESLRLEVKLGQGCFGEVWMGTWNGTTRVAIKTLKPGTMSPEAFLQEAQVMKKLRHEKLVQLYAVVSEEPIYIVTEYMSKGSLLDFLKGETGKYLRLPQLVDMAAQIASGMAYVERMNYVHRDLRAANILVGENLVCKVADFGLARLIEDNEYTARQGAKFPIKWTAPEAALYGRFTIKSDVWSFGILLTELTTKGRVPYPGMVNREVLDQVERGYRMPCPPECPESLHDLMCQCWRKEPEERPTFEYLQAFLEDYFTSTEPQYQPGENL
pIC50: −log10 of the molar value.
quantity: pIC50

1. COc1cc(-c2cn([C@H]3CC[C@H](N4CCN(C)CC4)CC3)c3ncnc(N)c23)ccc1NS(=O)(=O)c1ccccc1    < 5.52

---

Biological target: Angiopoietin-1 receptor (Homo sapiens)
Sequence (Q02763 whole entry, the tested form may be a part): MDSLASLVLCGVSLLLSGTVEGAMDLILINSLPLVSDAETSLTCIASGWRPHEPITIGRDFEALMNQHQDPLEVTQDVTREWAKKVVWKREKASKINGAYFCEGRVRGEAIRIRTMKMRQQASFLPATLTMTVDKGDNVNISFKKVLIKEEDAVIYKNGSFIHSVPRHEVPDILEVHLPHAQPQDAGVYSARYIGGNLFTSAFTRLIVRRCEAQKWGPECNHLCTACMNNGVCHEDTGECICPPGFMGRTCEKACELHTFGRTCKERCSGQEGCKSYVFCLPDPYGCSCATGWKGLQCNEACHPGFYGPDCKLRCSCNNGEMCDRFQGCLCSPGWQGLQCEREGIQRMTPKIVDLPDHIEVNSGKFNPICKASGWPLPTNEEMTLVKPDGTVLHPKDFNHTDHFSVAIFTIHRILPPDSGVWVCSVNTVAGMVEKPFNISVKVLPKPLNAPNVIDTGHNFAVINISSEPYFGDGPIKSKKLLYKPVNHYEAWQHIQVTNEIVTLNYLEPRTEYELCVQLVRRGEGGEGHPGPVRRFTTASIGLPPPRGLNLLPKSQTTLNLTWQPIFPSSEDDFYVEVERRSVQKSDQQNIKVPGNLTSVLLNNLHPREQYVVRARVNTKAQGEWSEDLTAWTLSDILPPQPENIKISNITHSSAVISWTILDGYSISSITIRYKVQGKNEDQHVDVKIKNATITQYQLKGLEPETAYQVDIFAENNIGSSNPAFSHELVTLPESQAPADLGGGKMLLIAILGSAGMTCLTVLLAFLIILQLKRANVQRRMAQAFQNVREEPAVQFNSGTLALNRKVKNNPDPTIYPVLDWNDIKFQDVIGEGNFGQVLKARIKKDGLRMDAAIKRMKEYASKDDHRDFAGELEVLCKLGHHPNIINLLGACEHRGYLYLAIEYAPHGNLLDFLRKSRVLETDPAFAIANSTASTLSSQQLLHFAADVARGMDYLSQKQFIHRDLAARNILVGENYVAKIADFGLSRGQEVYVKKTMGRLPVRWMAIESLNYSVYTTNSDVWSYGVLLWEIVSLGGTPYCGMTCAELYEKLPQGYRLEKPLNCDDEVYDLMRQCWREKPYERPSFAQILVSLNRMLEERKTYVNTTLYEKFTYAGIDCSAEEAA
Test: Inhibition of GST-fused TIE2 (unknown origin) using poly[Glu:Tyr] as substrate assessed as phosphotyrosine level by ELISA
pIC50: −log10 of the molar value.
Binary call on pIC50: Satisfied from 7 upward, Not satisfied beneath that.

1) Nc1ncnc2c1c(-c1nc3ccc(NS(=O)(=O)c4c(F)cccc4F)cc3[nH]1)cn2C1CCCC1    Not satisfied
2) Nc1ncnc2c1c(C(=O)c1cccc(NS(=O)(=O)c3c(F)cccc3F)c1)cn2C1CCCC1    Not satisfied
3) COc1ccc(C)cc1NC(=O)Nc1cccc(C(=O)c2cn(C3CCCC3)c3ncnc(N)c23)c1    Satisfied
4) Cc1ccc(F)c(NC(=O)Nc2cccc(C(=O)c3cn(C4CCCC4)c4ncnc(N)c34)c2)c1    Satisfied
5) Nc1ncnc2c1c(C(=O)c1cccc(NC(=O)Nc3ccc(Cl)cc3)c1)cn2C1CCCC1    Satisfied
6) Nc1ncnc2c1c(Cc1cccc(NS(=O)(=O)c3c(F)cccc3F)c1)cn2C1CCCC1    Not satisfied
7) Nc1ncnc2c1c(C(=O)c1cccc(NC(=O)Nc3c(F)cccc3F)c1)cn2C1CCCC1    Not satisfied
8) Nc1ncnc2c1c(C(=O)c1ccc(NS(=O)(=O)c3c(F)cccc3F)cc1)cn2C1CCCC1    Not satisfied
9) Nc1ncnc2c1c(-c1nc3ccc(NC(=O)Nc4c(F)cccc4F)cc3[nH]1)cn2C1CCCC1    Not satisfied
10) Nc1ncnc2c1c(C(=O)c1ccc(NC(=O)Nc3c(F)cccc3F)cc1)cn2C1CCCC1    Not satisfied
